Would you mind telling me the reported log10 IC50 of each entry?
- System: JJN-3 (NIK translocated) multiple myeloma cells
- method_description: Antiproliferative activity on JJN-3 multiple myeloma cells (CellTiter-Glo, 96 hr), Biological Assay C
- Format: cell-based, human
- measurement_conditions: Homo sapiens, JJN-3, 96 h, JJN-3 (NIK translocated) cells, averaged values, read-out: JJN-3 Proliferation inhibition (IC50 (nM))
// units: nM (pre-log); metric: IC50; scale: log10

Below: 6 compounds and their reported log10 IC50.
compound	log10 IC50
CC1(CO)CNc2c(C#N)cc(-c3ccnc(Nc4cc(Cl)ccc4Cl)n3)cc21 (centres unmarked) [Compound 29]	2.22
COc1cc(C(=O)N2CC[C@@H]3CNC[C@@H]32)c(Cl)cc1Nc1nccc(-c2cc(C#N)c3c(c2)C(C)(C)CN3)n1 (relative stereo) [Compound 122]	1.54
CN(C)C(=O)c1ccc(Cl)cc1Nc1nccc(-c2cc(C#N)c3c(c2)C(C)(CO)CN3)n1 (centres unmarked) [Compound 56]	3.24
CC(C)(O)COc1ccc(C#N)cc1Nc1nccc(-c2cc(C#N)c3c(c2)[C@@](C)(CO)CN3)n1 [Compound 12]	2.14
Cc1ccc(C#N)cc1Nc1nccc(-c2cc(C#N)c3c(c2)[C@@](C)(COC(=O)[C@@H](N)C(C)C)CN3)n1 [Compound 139]	2.48
CCN1CCN(Cc2cc(OC)c(Nc3nccc(-c4cc(C#N)c5c(c4)C(C)(C)CN5)n3)cc2Cl)CC1 [Compound 87]	1.54

Provide reported log10 IC50 for each item, in the same order as listed.
1. Cc1cc(CCN2CC(F)C2)c(C#N)cc1Nc1nccc(-c2cc(C#N)c3c(c2)[C@@](C)(CO)CN3)n1 [Compound 174]
2. Cc1ccc(C#N)cc1Nc1nccc(-c2cc(C#N)c3c(c2)[C@@](C)(COC(=O)[C@@H](C)N)CN3)n1 [Compound 141]

# output
1. 1.85
2. 1.52
